From: patent US20120238623A1

experimentalTarget: RARα (Homo sapiens)
Sequence (P10276 whole entry, species assumed): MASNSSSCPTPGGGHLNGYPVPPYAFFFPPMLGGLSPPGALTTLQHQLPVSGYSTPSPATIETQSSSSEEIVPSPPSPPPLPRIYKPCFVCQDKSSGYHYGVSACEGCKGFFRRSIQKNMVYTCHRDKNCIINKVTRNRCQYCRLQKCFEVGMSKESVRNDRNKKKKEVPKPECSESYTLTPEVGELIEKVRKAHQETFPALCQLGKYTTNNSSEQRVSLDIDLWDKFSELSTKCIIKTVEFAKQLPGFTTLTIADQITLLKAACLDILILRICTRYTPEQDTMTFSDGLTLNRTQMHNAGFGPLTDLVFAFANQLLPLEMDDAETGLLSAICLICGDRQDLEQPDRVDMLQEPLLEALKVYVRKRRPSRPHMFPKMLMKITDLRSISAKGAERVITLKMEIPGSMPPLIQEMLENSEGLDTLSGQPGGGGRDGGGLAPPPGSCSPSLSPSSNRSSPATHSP
metric: pKd
Kindly note that pKd refers to -log10 of the concentration in mol/L and answer with the value alone.

Lookup: pKd / RARα (Homo sapiens) / CC1(C)CCC(C)(C)c2c1cc(C(=O)Nc1cc(F)c(C(=O)O)c(F)c1)c(O)c2Cl 8.33
